- test_name: yeast display, Sf9 membrane polyspecificity reagent, FACS + sequencing; frameworks hold sequencing errors
observed_property: polyreactivity (PSR sort gate)

biopolymer_sequence	observed_measurement
QVQLVESGGGLVQAGGSLRLSCAASGSIFSSNAMGWYRQAPGKERELVAAITSSGTRTYYADSVKGRFTISRDNAKNTVYLQMNSLKPEDTAVYYCATRLRRSDHRYPYDYWGQGTQVTVSS	low polyreactivity
QVQLVESGGGLVQAGGSLRISCAASGRIFYENTMGWYRQAPGKETELVAVITSTGNTNYADSVKGRFTISRDNAKNTVYLQMNSLKPEVTAVYYCAADSPPGGYVFPERPYDYWGQGTQVTVSS	low polyreactivity

---

- test_name: yeast display, Sf9 membrane polyspecificity reagent, FACS + sequencing; frameworks hold sequencing errors
observed_property: polyreactivity (PSR sort gate)

biopolymer_sequence	polyreactivity (PSR sort gate)
QVQLVESGGGLVQAGGSLRLSCAASGFAFSYYAMGWYRQAPGKEREFVASIDWSGGSTYYADSVKGRFTISRDNAKNTVYLQMNSLKAEDTAVYYCAAELDYFPGYDYWGQGTQVTVSS	low polyreactivity
QVQLVESGGGLVQAGGRLRLSCAASGLIILRYTMGWYRQAPGKERELVAVITSGGRTYYADSVKGRFTISRDNAKNTVYLQMNSLKPEDTAVYYCAASVGLRTSFTGGGYWGQGTQVTVSS	high polyreactivity
QVQLVESGGGLVQAGGSLRLSCAASGNIYNNYDMGWYRPAPGKERDLVARIDSGGSTNYADSVKGRFTISRDNAKNTVYLQMNCLKPEDTAVYYCAADFLSHWLLEMDYWGQGTQVTVSS	low polyreactivity
QVQLVESGGGLVQAGGSLRLSCAASGSTFWPYAMGWYRQAPGKERELVAAITSSGGSTYYADSVKGRFTISRDNAKNTVYLQRNSLKPEDTAVYYCAADWSNLGAYDYWGQGTQVTVSS	low polyreactivity

Proceeding to the next sequence to report its polyreactivity (PSR sort gate).
Problem: Form field: reported polyreactivity (PSR sort gate) of QVQLVESGGGLVQAGGSLRLSCAASGRTFDVYTMGWYRHAAGKERELVAAITARGARTYYADSVKGRFTISRDNAKNTVYLQMNSLKPEDTAVYYCAAKSYRHSLYDYWGQGTQVTVSS
Solution: high polyreactivity

---

- test_name: yeast display, Sf9 membrane polyspecificity reagent, FACS + sequencing; frameworks hold sequencing errors
observed_property: polyreactivity (PSR sort gate)

// known answers, use as guide
biopolymer_sequence	observed_measurement
QVQLVESGGGLVQTGGSLRLSCAASGSTFYLYTMGWYRQAPGKERELVAAISGRDGSTYYADSVKGRFTISRDNAKNTVYLQMNSLKPEDTAVYYCAADPGYTYVHVTYYYWGQGTQVTVSS	low polyreactivity
QVQLVESGGGLVQAGGSLRLSCAASGRTFNVYAMGWYRQAPGKERELVAVITNGGSTNYADSVKGRFTISRDNAKNTVYLQMNSLKPEDTAVYYCAASWGYGALTPDMGYWGQGTQVTVSS	low polyreactivity
QDQLVESGGGLVQAGGSLRLSCAASALIFSLNAMGWYRQAPGTERELVAAISSDDSTYYADSVKGRFTISRDNAKNTVYLQMNSLKPEDTAVYYCAAVQLVPGYVDSNDYYWGQGTQVTVSS	low polyreactivity
QVQIVESGGGLVQAGGNLRLSCAASGFIFTRYAMGWYRQAPGKERELVAAISTSVDRTYYADSVKGRFSISRDNAKNTVYLQMNSLKPEDTAVYYCAVVRPRSVGRYDYWGQGTQVTVSS	high polyreactivity
QVQLQESGGGMVQAGGSLRLSSAASGYISWADYMGWYRQAPGKERELVAGIGYGSTTYYADSVKGRFTISRDNAKNTAYLQMNSLKPEDTAVYYCAVGCYRDTAYKYWGQGTQVTVSS	low polyreactivity
QVQLVESWRGLVQAGGSLRLSCAASGNTFRWYAMGWYRQEPGKEREFVADITVRGGSTYYADSLKGRFTISRDNAKNTVYLQMNSLKPEQTAVYYCAVDFRRYPGFDYWGQGTQVTVSS	low polyreactivity
QVQHVESGGGLVQAGGSLRLSCAASVRTFIYYAMGWYRQAPGKERELVASITTGGRTYYADSVKGRFTISRDNAKNTVYLQMNSLKPEDTAVYYCNARWYRTGSTYHEDYWGQGTQVTVSS	high polyreactivity
QVQLVESGGGLVQARGSLRLSCAASGSIFYNYGMGWYRQAPGKERELVAAIRASGDSTYYADSVKGRFTISRDNAKNTVYLQMNSLKPEDTAVYYCAARPNQSYYGLYYYWGQGTQVTVSS	low polyreactivity
QVQLVESGGGLVQAGGSLRLSCAASGSTFQRYAMGWYRQAPGKERELVAAITWSGGSTYYADSVKGRFTISRDNAKNTGYLQMNSLKPEDTAVYYGAARSVRYGFGYWGQGTQVTVSS	high polyreactivity
QVQLVESGGGLVQAGGSLRLSCAASGRIFDRNAMGWYRQAPGKERELVAAIRRGGSTNYADSVKGRFTISRDNAKNTVYLQMNSLKPEDTAVYYCNTVYSEYYIAYDYWGQGTQVTVSS	high polyreactivity

Next, consider the following sequence.
Problem: Name the reported polyreactivity (PSR sort gate) value associated with the sequence QVQLVESGGGLVQAGGSLRLSCAASGRIFVYNVMGWYRQAPGKERELVAAISWGTGSTYADSVKGRFTISRDNAKNTVYLQMNSLKPEDTAVYYCAAPSPRSRAYTYRGDYWGQGTQVTVSS
Solution: low polyreactivity

---

- test_name: yeast display, Sf9 membrane polyspecificity reagent, FACS + sequencing; frameworks hold sequencing errors
observed_property: polyreactivity (PSR sort gate)

> print(dat)
                        biopolymer.sequence               observed.property  observed.measurement
1  QVQLVESGGGLVQAGGSLRLSCAASGSIFWANAMGWYRQAPGKERELVASISSGGSTNYADSVKGRFTISRDNAKNTVYLQMNSLKPEDTAVYYCAADYSHSYIGYDYWGQGTQVTVSS  polyreactivity (PSR sort gate)    low polyreactivity
2  QVQLVESGGGLVQAGGSLRLSCAASGRIFRGYAMGWYRQAPGKERELVADISSGASTNYADSVKGRFTISRDNAKNTVYFQMNSLKPEDTAVYYCAAQHSVLAYFEYDYWGQGTQVTVSS  polyreactivity (PSR sort gate)    low polyreactivity

---

- test_name: yeast display, Sf9 membrane polyspecificity reagent, FACS + sequencing; frameworks hold sequencing errors
observed_property: polyreactivity (PSR sort gate)

Some sequences with recorded polyreactivity (PSR sort gate):
biopolymer_sequence	polyreactivity (PSR sort gate)
QVQLVESGGGLVQAGASLRLSCAASGSIFGGYGMGWYRQAPGKERELVAAITSRVGSTYYADSVKGRFTSSRDNAKNTVYLQLNSLNPEDTAVYYCAAKRIYSWGRWTGDYWGQGTQVTVSS	high polyreactivity
QVQLVESGGGIVQAGGSLRLSCAASGRIFVDYDMGWYRQATGKERELVATISSGGSTNYADSVKGRFTISRDNAKNTVYLQMNSLKPEDSAVYHCNKDYHVRYYYWGQGTQVTVSS	low polyreactivity
QVQLVESGGGLVQAAGSLRLSCAASGYTFGYYAMGWYRQAPGKERELVAAINWSGGSTYYADSVKGRFTISRDNEKNSVYLQMYSLKPEDTAVYYCAAQSRSPGYYYWGQGTQVTVSS	high polyreactivity
QVHLVESGGCLVQAGGSLRLSCAASGRIYRYAMGWYRQAPGKERELVAVITRRGDGTYYADSVKGRFTISRDNAKNTVYLQMNSLKPEDTAVYYCNADQSYKRPWPYDYWGQGTQVTVSS	high polyreactivity
QVQLVESGGGLVQAGGSLRLSCAASGSIFGKYAMGWYRQAPGKERELVAAISERTGRTYYADSVKGRFTISRDNAKNTVYLQMNSLKPEDTAVYYCNVGPLYSGWSTYGYDYWGQGTQVTVSS	high polyreactivity

Problem: Param item = QVQLVESGGGLVQAGCSLRLSCSASGRIFGYYAKGWYRQAPGKERELVARISGRGGSTYYADSVKVRFSISRDNAQKTVILQMNSLNPEDTAVYYCNVVLSFWKYYAYDQGDYWGQGTQVTVSS ; retrieve measured polyreactivity (PSR sort gate).
Solution: low polyreactivity

Problem: Which polyreactivity (PSR sort gate) reading was recorded for the sequence QVQLVESGGGLVQAGGSLRLSCAASGFIFYHYAMGWYRQAPGKERELVAAISGRGGSTYYADSVKGRFTISRDNAKNTVYLQMNSLKPEDTAVYYCATDYSRTFDYWGQGTQVTVSS ?
Solution: high polyreactivity

Problem: Item under review: QVQLVESGGGLVQAGGSLRLSCAASGSTFGDYAMGWYRQAPGKERELVAAISFSDDSTYYADSVKGRFTISRDNAKNTVYLQMNSLKPEDTAVYYCAKEAEYSTPGGDYWGQGTQVTVSS . Reported polyreactivity (PSR sort gate)?
Solution: low polyreactivity

Problem: Name the recorded polyreactivity (PSR sort gate) for QVHLVESGGGLVQAGGSLRLSCAASGITFTRYNMGWYRQAPGKERELVASIRRSGSTNYADSVKGRFTISRDNAKNTVYLQMNSLKPEDTAVFYCAAVNYGYPKPYDYWGQGTQVTVSS .
Solution: high polyreactivity

Problem: State the recorded polyreactivity (PSR sort gate) for this entry: QVQLVESGGGLVQAGGSLRLSCAASGRTVPGYVMGWYRQARGKERELVAAITSGGSTNYADSVKGRFTISRDNAKNTVYLQMNSLKPEDTAVNYCNADRNRWPWSVFTSEYWGQGTQVTVSS
Solution: low polyreactivity

Problem: Report polyreactivity (PSR sort gate) for QVQLVESGGGLVQAGGSLRLSCADSGIIFRYYSMGWYRQAPGKESEFVAAITGSSGSTYADSVKGRFTISRDNAKNTVYLQMNSLKPEDTAVYYCNADSYSIWVYGEYDYWGLGTQVTVSS please.
Solution: high polyreactivity
